Biological target: E. coli RNase P holoenzyme (M1 P RNA + rnpA protein)
Sequence: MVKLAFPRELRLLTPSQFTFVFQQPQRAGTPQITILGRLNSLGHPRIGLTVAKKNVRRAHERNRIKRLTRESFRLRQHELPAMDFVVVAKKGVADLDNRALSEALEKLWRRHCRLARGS
Experiment: relative kcat/Km (krel) vs genomic leader AAAGAU (relative (reference leader = 1)); higher = faster RNase P cleavage
Conditions: fraction of substrate reacted: ~26-29% (28.66% repeat 1, 26.4% repeat 2)
Whole data set: some 4,100 sequences, median “relative kcat/Km (krel) vs genomic leader AAAGAU” near 1.7, cut for the highest 2% near 6.5. The list comes from a sample in which the highest values are over-represented; it also holds close analogues and randomly drawn sequences.
Please provide measured relative kcat/Km for the entries that follow.
One number for each entry.

Worked cases, answers included:
sequence_entry	experimental_system	relative kcat/Km
TACGTT	E. coli RNase P holoenzyme (M1 P RNA + rnpA protein)	2.61
GGCACT	E. coli RNase P holoenzyme (M1 P RNA + rnpA protein)	2.89
CTACGT	E. coli RNase P holoenzyme (M1 P RNA + rnpA protein)	1.13
TTTTCC	E. coli RNase P holoenzyme (M1 P RNA + rnpA protein)	3.22

For each entry beneath this line, provide reported relative kcat/Km.
1. CTGCGG
2. GCCCAG

1. 0.674
2. 3

For each entry beneath this line, provide reported relative kcat/Km.
1. GATGAG
2. CCTCCT
3. TCGTCA
4. AGTATT
5. CGATAT

1. 0.577
2. 1.29
3. 3.63
4. 4.91
5. 6.68

// relative kcat/Km value for "CCAGAC" : 3.22

----------
Molecular target: E. coli RNase P holoenzyme (M1 P RNA + rnpA protein) (UniProt P0A7Y8)
Sequence: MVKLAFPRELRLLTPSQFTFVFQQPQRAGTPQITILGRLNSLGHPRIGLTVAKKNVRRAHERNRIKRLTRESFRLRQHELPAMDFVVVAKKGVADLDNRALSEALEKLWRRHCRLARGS
Experiment: relative kcat/Km (krel) vs genomic leader AAAGAU (relative (reference leader = 1)); higher = faster RNase P cleavage
Conditions: fraction of substrate reacted: ~26-29% (28.66% repeat 1, 26.4% repeat 2)
The full ranking holds about 4,100 sequences; the median of “relative kcat/Km (krel) vs genomic leader AAAGAU” is about 1.7, and the highest 2% start at about 6.5. The sample holds the highest values, similar sequences and a random draw of the others, so the mix is not that of the screen.
endpoint: relative kcat/Km
Numbers only.

sequence_entry	endpoint_value
CTTGTG	0.748
CTACTT	2.49
ATAGTC	1.68
TACTTG	2.68
CTGCCA	1.19

For each entry beneath this line, provide reported relative kcat/Km.
1. AGGGGG
2. TGCGGT
3. CTTAAG
4. ACCATT

1.11
2.25
2.28
4.27

For each entry beneath this line, provide reported relative kcat/Km.
1. TCCATG
2. TTCCGT
3. TACTTC
4. GTCGTA
5. ATCAAG
6. CACTCT
7. ATCGAA

1: 3.46; 2: 2.5; 3: 6.85; 4: 3.88; 5: 3.87; 6: 6.37; 7: 8.19

For each entry beneath this line, provide reported relative kcat/Km.
1. GGCGAC
2. GTCGAT
3. ACCATA
4. ATCGAG
5. CTCAAA
6. TCCATA
7. AACTCT

[4.08, 3.7, 3.64, 3.85, 8.02, 6.71, 4.39]

Value source: the supplement of paper PMC9433436
